- CONDITION: 368.15 K; Liquid; Gas chromatography
REPORTED ENDPOINT: vapor or sublimation pressure (kPa)

>>> assay_value("C[Si](C)(C)O[Si](C)(C)O[Si](C)(C)O[Si](C)(C)O[Si](C)(C)O[Si](C)(C)C [tetradecamethylhexasiloxane]")
0.1398
>>> assay_value("C[Si](C)(C)O[Si](C)(C)O[Si](C)(C)O[Si](C)(C)O[Si](C)(C)O[Si](C)(C)O[Si](C)(C)C [hexadecamethylheptasiloxane]")
0.03789
>>> assay_value("C[Si](C)(C)O[Si](C)(C)O[Si](C)(C)O[Si](C)(C)O[Si](C)(C)C [dodecamethylpentasiloxane]")
0.5114

[A] C[Si]1(C)O[Si](C)(C)O[Si](C)(C)O[Si](C)(C)O[Si](C)(C)O[Si](C)(C)O1 [dodecamethylcyclohexasiloxane]
[B] C[Si]1(C)O[Si](C)(C)O[Si](C)(C)O[Si](C)(C)O[Si](C)(C)O[Si](C)(C)O[Si](C)(C)O[Si](C)(C)O[Si](C)(C)O[Si](C)(C)O1 [icosamethylcyclodecasiloxane]
Data request: Please choose the item with the lower vapor or sublimation pressure value from this pair: A and B Mark your selection by writing its label.
Data returned: B

* * *

- CONDITION: 348.15 K; Liquid; Gas chromatography
REPORTED ENDPOINT: vapor or sublimation pressure (kPa)

>>> assay_value("C[Si](C)(C)O[Si](C)(C)O[Si](C)(C)O[Si](C)(C)O[Si](C)(C)O[Si](C)(C)O[Si](C)(C)C")
0.008232

[A] C[Si](C)(C)O[Si](C)(C)O[Si](C)(C)O[Si](C)(C)O[Si](C)(C)O[Si](C)(C)O[Si](C)(C)O[Si](C)(C)O[Si](C)(C)C
[B] C[Si]1(C)O[Si](C)(C)O[Si](C)(C)O[Si](C)(C)O[Si](C)(C)O1
[C] C[Si](C)(C)O[Si](C)(C)O[Si](C)(C)O[Si](C)(C)O[Si](C)(C)C
[D] C[Si]1(C)O[Si](C)(C)O[Si](C)(C)O[Si](C)(C)O[Si](C)(C)O[Si](C)(C)O1
Data request: Please order the records by their reported vapor or sublimation pressure, lowest number first. # the answer lists labels in the order requested
Data returned: A, D, C, B
(A: 0.0004156 kPa, D: 0.09584 kPa, C: 0.1719 kPa, B: 0.6537 kPa)

* * *

- CONDITION: 428.15 K; Liquid; Gas chromatography
REPORTED ENDPOINT: vapor or sublimation pressure (kPa)

>>> assay_value("C[Si](C)(C)O[Si](C)(C)O[Si](C)(C)O[Si](C)(C)O[Si](C)(C)O[Si](C)(C)C [tetradecamethylhexasiloxane]")
3.427
>>> assay_value("C[Si](C)(C)O[Si](C)(C)O[Si](C)(C)O[Si](C)(C)O[Si](C)(C)O[Si](C)(C)O[Si](C)(C)O[Si](C)(C)C [octadecamethyloctasiloxane]")
0.6654
>>> assay_value("C[Si](C)(C)O[Si](C)(C)O[Si](C)(C)O[Si](C)(C)O[Si](C)(C)O[Si](C)(C)O[Si](C)(C)C [hexadecamethylheptasiloxane]")
1.57
>>> assay_value("C[Si](C)(C)O[Si](C)(C)O[Si](C)(C)O[Si](C)(C)O[Si](C)(C)O[Si](C)(C)O[Si](C)(C)O[Si](C)(C)O[Si](C)(C)C [eicosamethylnonasiloxane]")
0.2769
>>> assay_value("C[Si](C)(C)O[Si](C)(C)O[Si](C)(C)O[Si](C)(C)O[Si](C)(C)O[Si](C)(C)O[Si](C)(C)O[Si](C)(C)O[Si](C)(C)O[Si](C)(C)C [docosamethyldecasiloxane]")
0.1136
>>> assay_value("C[Si](C)(C)O[Si](C)(C)O[Si](C)(C)O[Si](C)(C)O[Si](C)(C)O[Si](C)(C)O[Si](C)(C)O[Si](C)(C)O[Si](C)(C)O[Si](C)(C)O[Si](C)(C)O[Si](C)(C)C [hexacosamethyldodecasiloxane]")
0.01939

[a] C[Si](C)(C)O[Si](C)(C)O[Si](C)(C)O[Si](C)(C)O[Si](C)(C)O[Si](C)(C)O[Si](C)(C)O[Si](C)(C)O[Si](C)(C)O[Si](C)(C)O[Si](C)(C)O[Si](C)(C)O[Si](C)(C)C [octacosamethyltridecasiloxane]
[b] C[Si](C)(C)O[Si](C)(C)O[Si](C)(C)O[Si](C)(C)O[Si](C)(C)O[Si](C)(C)O[Si](C)(C)O[Si](C)(C)O[Si](C)(C)O[Si](C)(C)O[Si](C)(C)C [tetracosamethylundecasiloxane]
Data request: Which value of vapor or sublimation pressure is numerically greater: that of a or that of b ? Mark your selection by writing its label.
Data returned: b
(b: 0.04716 kPa, a: 0.008092 kPa)
